// data source = patent US6914045B2

Listing: MIC Enterococcus faecium (GC 4556) of selected compounds
Tested on: Enterococcus sp.
Test: in vitro antibacterial evaluation, MIC by broth dilution
Type: cell-based
Details: Enterococcus faecium (GC 4556); broth dilution, 18 hours at 35° C.
Source text: Methods for in vitro Antibacterial Evaluation (Table 1) […]
assayEndpoint: MIC Enterococcus faecium (GC 4556)

[
  {
    "compound": "CC(c1ccccc1)C1NC(=O)CNC(=O)C(CO)NC(=O)C(C(O)C2CNC(=N)N2C2OC(CO)C(O)C(O)C2O)NC(=O)C(C(O)C2CNC(=N)N2)NC(=O)C(Cc2ccc(OC3OC(CO)C(OC4OC5COC(c6ccc(C(C)(C)C)cc6)OC5C(O)C4O)C(O)C3O)cc2)NC1=O (stereo not shown)",
    "assayEndpoint": "MIC Enterococcus faecium (GC 4556)",
    "reportedResult": "2 µg/mL"
  },
  {
    "compound": "CC(c1ccccc1)C1NC(=O)CNC(=O)C(CO)NC(=O)C(CC2CNC(=N)N2C2OC(CO)C(O)C(O)C2O)NC(=O)C(CC2CNC(=N)N2)NC(=O)C(Cc2ccc(OC3OC(CO)C(OC4OC(CO)C(O)C(O)C4O)C(O)C3O)cc2)NC1=O (stereo not shown) [Example 277a]",
    "assayEndpoint": "MIC Enterococcus faecium (GC 4556)",
    "reportedResult": ">128 µg/mL"
  },
  {
    "compound": "CC(c1ccccc1)C1NC(=O)CNC(=O)C(CO)NC(=O)C(C(O)C2CN(Cc3ccccc3)C(=NCc3ccccc3)N2C2OC(CO)C(O)C(O)C2O)NC(=O)C(C(O)C2CN(Cc3ccccc3)C(=NCc3ccccc3)N2Cc2ccccc2)NC(=O)C(Cc2ccc(OC3OC(CO)C(OC4OC5COC6(OC5C(O)C4O)C4CC5CC(C4)CC6C5)C(O)C3O)cc2)NC1=O (stereo not shown)",
    "assayEndpoint": "MIC Enterococcus faecium (GC 4556)",
    "reportedResult": "32 µg/mL"
  },
  {
    "compound": "CC(c1ccccc1)C1NC(=O)CNC(=O)C(CO)NC(=O)C(C(O)C2CN(Cc3ccccc3-c3ccccc3)C(=N)N2C2OC(CO)C(O)C(O)C2O)NC(=O)C(C(O)C2CNC(=N)N2)NC(=O)C(Cc2ccc(OC3OC(CO)C(OC4OC(CO)C(O)C(O)C4O)C(O)C3O)cc2)NC1=O (stereo not shown)",
    "assayEndpoint": "MIC Enterococcus faecium (GC 4556)",
    "reportedResult": ">128 µg/mL"
  },
  {
    "compound": "CC(C)CC(=O)OC1C(OC2C(CO)OC(Oc3ccc(CC4NC(=O)C(C(C)c5cccs5)NC(=O)CNC(=O)C(CO)NC(=O)C(C(O)C5CNC(=N)N5C5OC(CO)C(O)C(O)C5O)NC(=O)C(C(O)C5CNC(=N)N5)NC4=O)cc3)C(O)C2O)OC(CO)C(O)C1O (stereo not shown) [Example 265a]",
    "assayEndpoint": "MIC Enterococcus faecium (GC 4556)",
    "reportedResult": "64 µg/mL"
  },
  {
    "compound": "CC(c1ccccc1)C1NC(=O)CNC(=O)C(CO)NC(=O)C(C(O)C2CNC(=N)N2C2OC(CO)C(O)C(O)C2O)NC(=O)C(C(O)C2CNC(=N)N2)NC(=O)C(Cc2ccc(OC3OC(COC(=O)C(c4ccccc4)c4ccccc4)C(OC4OC(CO)C(O)C(O)C4O)C(O)C3O)cc2)NC1=O (stereo not shown) [Example 96b]",
    "assayEndpoint": "MIC Enterococcus faecium (GC 4556)",
    "reportedResult": "8 µg/mL"
  },
  {
    "compound": "N=C1NCC(C(O)C2NC(=O)C(Cc3ccc(OC4OC(CO)C(OC5OC6COC7(OC6C6OC8(OC56)C5CC6CC(C5)CC8C6)C5CC6CC(C5)CC7C6)C(O)C4O)cc3)NC(=O)C(CC3CCCCC3)NC(=O)CNC(=O)C(CO)NC(=O)C(C(O)C3CNC(=N)N3C3OC(CO)C(O)C(O)C3O)NC2=O)N1 (stereo not shown) [Example 106b]",
    "assayEndpoint": "MIC Enterococcus faecium (GC 4556)",
    "reportedResult": "8 µg/mL"
  }
]
